Tested Target: Short transient receptor potential channel 6 (Mus musculus)
Assay Details: activation of mouse TRPC6 channel, confirmation, selectivity assay for TRPC4 activator project, cell-based, HEK293, membrane potential dye, duplicate (AID 434950)
Test Conditions: HEK293 TRPC6, membrane potential fluorescence, at 10 µM
Activity calls are given as the source filed them.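 Rule for the calls: active = membrane potential signal rise above negative control mean plus 3 SD in both duplicates, also active in the earlier TRPC4 screen; inactive = the rest.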
Possible outcomes: Y = active, N = inactive

1. Cc1ccc2oc(=O)c3cnn(CC(=O)NC4CCN(Cc5ccccc5)CC4)c3c2c1; N
2. Cc1cccc2cc(C(c3nnnn3Cc3ccccc3)N3CCN(C)CC3)c(=O)[nH]c12 (stereo not given); Y
3. Cc1ccc(OCC(=O)NNC(=S)NC(=O)C(C)(C)C)c(Br)c1; Y
4. CCOC(=O)C1(CC2CC2)CCN(Cc2ccc3cccc(F)c3n2)CC1; Y
5. CCCOc1ccc(C(=O)NNC(=S)NC(=O)c2ccco2)cc1; Y
6. O=c1c2cc(Br)ccc2nc(-c2ccc(Cl)cc2)n1O; N
7. COc1ccc(C(=O)NC(=S)NNC(=O)c2c(-c3ccccc3)noc2C)cc1OC; Y
8. CCc1cccc(CC)c1NC(=S)NCC(c1cccnc1)N(C)C (stereo not given); Y
9. CN(C)C(CNC(=O)C1CCN(S(=O)(=O)c2cccc(C(F)(F)F)c2)CC1)c1ccccc1 (stereo not given); N
10. CN(C)C(CNC(=O)Cc1cccc(C(F)(F)F)c1)c1ccco1 (stereo not given); Y
11. CCn1cc(CN2CCC(n3nccc3NC(=O)CCOc3ccccc3)CC2)cn1; N
12. CCCCC(c1nnnn1CC1CCCO1)N1CCN(c2nc3ccccc3s2)CC1 (stereo not given); Y
13. COc1cccc(C(=O)N(C)CC2CCN(CCc3cccc(C(F)(F)F)c3)CC2)c1; Y
14. CCOC(=O)C1(CCOc2ccccc2)CCN(Cc2cnc(C)s2)CC1; Y
15. CCOC(=O)C1(CCOc2ccccc2)CCN(Cc2ccc(OC)c(O)c2)CC1; Y
16. CSCCC(NS(=O)(=O)c1ccc2c(c1)c(=O)n(C)c(=O)n2C)C(=O)NC1CCN(Cc2ccccc2)CC1 (stereo not given); N
17. CC(NCc1cc(Br)ccc1OCC(=O)NCc1ccccc1)c1ccccc1 (stereo not given); Y
18. CCCCCSc1nnc2c(n1)OC(c1cccn1C)N(C(C)=O)c1ccccc1-2 (stereo not given); N
19. COc1ccc(C(CNC(=O)C(C)c2ccc3cc(OC)ccc3c2)N(C)C)cc1 (stereo not given); Y
20. C=CCn1c(CCNC(=O)c2ccco2)nc2ccccc21; N
21. COc1ccc(Cl)cc1NC(=O)CNCC(c1ccccc1)N(C)C (stereo not given); Y
22. CN(C)C(CNC(=S)Nc1cccc(Cl)c1)c1ccccc1 (stereo not given); N
23. CC1CC(C)(C)N(C(=O)CN2C(=O)c3ccccc3C2=O)c2ccccc21 (stereo not given); Y
24. Cc1cc(NC(=O)c2cnn3cccnc23)nn1CC(=O)Nc1cccnc1; N
25. CNCCCOc1ccc2c(c1)CCC2; Y
26. Cc1ccc(S(=O)(=O)NCCC(=O)NCC(c2ccco2)N2CCCCC2)cc1C (stereo not given); Y
27. Cc1ccccc1OCC(=O)NNC(=S)NC(=O)c1ccco1; Y
28. O=C(NNC(=S)NC(=O)c1ccccc1Cl)c1cccc([N+](=O)[O-])c1; Y
29. CCN(CC)CCCOc1ccc(Cl)c(Cl)c1; Y
30. CCCCN(CC)CCNC(=O)c1cc2cc3ccc(Cl)cc3nc2o1; N
31. COc1ccc(/C=C/CN2CCCC(C(=O)c3ccc(OC)c(F)c3)C2)cc1 (stereo not given); Y
32. COc1ccc(N/C(C)=C2/C(=O)C(=O)N(CCO)C2c2ccc(Br)cc2)cc1 (stereo not given); Y
33. CN(C)CCCN(C(=O)c1ccc(S(=O)(=O)N(C)C)cc1)c1nc2ccc(F)cc2s1; N
34. CCOC(=O)C1(CCc2ccccc2)CCN(Cc2ccc(OC)cc2)CC1; Y
35. Cc1cc(OCCCn2ccnc2)ccc1[N+](=O)[O-]; N
